# target or test system: human serotonin transporter (h-SERT) (Homo sapiens (Human))
# Sequence (P31645 whole entry): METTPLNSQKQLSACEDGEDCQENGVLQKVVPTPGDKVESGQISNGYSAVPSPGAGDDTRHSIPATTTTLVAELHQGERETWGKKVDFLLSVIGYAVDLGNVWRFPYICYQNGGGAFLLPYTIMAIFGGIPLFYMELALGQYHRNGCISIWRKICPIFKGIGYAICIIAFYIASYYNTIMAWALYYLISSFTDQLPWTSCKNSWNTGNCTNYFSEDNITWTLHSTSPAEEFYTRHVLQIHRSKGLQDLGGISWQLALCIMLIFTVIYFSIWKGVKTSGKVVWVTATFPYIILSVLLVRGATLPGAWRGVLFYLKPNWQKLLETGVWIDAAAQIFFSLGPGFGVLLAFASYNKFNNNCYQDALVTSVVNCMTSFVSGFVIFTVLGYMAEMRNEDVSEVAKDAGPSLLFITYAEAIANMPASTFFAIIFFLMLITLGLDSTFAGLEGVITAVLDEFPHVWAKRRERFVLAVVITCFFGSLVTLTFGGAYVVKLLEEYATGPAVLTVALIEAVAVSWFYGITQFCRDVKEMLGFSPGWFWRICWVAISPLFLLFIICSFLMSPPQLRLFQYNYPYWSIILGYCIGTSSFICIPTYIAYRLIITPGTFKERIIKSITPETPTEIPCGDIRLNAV
# test description: [3H] citalopram binding screening test for inhibitory effect on human serotonin reuptake
# condition set: h-SERT/CHO membrane preparation, [3H] citalopram approx. 2 nM; read-out: h-SERT binding inhibition constant (Ki)
Ki values for the compounds below.
measurement kind: Ki (nM)

[
  {
    "compound": "O=C1c2cc(CCN3CCC(Cc4ccc(Br)c(O)c4)CC3)ccc2OCC1O (stereo not shown)",
    "target or test system": "human serotonin transporter (h-SERT) (Homo sapiens (Human))",
    "value": 11
  },
  {
    "compound": "O=C1c2cc(CCN3CCC(Cc4ccc(Br)c(OCCO)c4)CC3)ccc2OCC1O (stereo not shown)",
    "target or test system": "human serotonin transporter (h-SERT) (Homo sapiens (Human))",
    "value": 18
  },
  {
    "compound": "COCCOc1cc(CC2CCN(CCc3ccc4c(c3)C(=O)C(O)CO4)CC2)ccc1Br.Cl (stereo not shown) [Compound 5-3, hydrochloride]",
    "target or test system": "human serotonin transporter (h-SERT) (Homo sapiens (Human))",
    "value": 2.7
  },
  {
    "compound": "COCCOc1cc(CC2CCN(CCc3ccc4c(c3)C(O)CCO4)CC2)ccc1Br (single isomer, unassigned; (-))",
    "target or test system": "human serotonin transporter (h-SERT) (Homo sapiens (Human))",
    "value": 4.6
  }
]
